target: T1, hGCGR-hFc (human); assay: SPR Biacore T100, 25C, mAb captured, antigen flowed
T1 construct: also called REGN316
T1 sequence (chain, as listed by the source limits assumed): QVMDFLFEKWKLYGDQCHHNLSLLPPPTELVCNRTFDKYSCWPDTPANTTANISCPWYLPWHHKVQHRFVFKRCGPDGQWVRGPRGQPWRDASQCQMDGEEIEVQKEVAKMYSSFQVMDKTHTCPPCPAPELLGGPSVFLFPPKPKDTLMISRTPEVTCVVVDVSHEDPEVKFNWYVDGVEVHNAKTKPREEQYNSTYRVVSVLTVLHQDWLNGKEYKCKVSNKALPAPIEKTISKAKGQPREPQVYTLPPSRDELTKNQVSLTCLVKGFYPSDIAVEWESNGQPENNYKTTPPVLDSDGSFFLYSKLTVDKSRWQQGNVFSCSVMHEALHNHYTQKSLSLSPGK
ASSAY_READOUT: kon (M⁻¹ s⁻¹)
The figure you give is taken to be in M⁻¹ s⁻¹; do not add the unit.

Below, each entry is followed by its recorded kon result.
BINDER	kon [M⁻¹ s⁻¹]
H4H1331P (antibody, V domains shown, Fully human anti-GCGR antibody; the controls are called isotype-matched hIgG4) VH: QVQLVESGGGVVQPGRSLRLSCAASGFTFSNFGMHWVRQAPGKGLEWVAVIWFDEIDKYYADSVKGRFTISRDNSKNTLYPQMNSLRAEDTAVYYCAREDYDILTGYYYAMDVWGQGTTVTVS VL: DIQMTQSPSSLSASVGDRVTITCRASQGIKNDLGWYQQKPGKAPKRLIYAASRLQSGVPSRFSGSGSGTEFTLTISSLQPEDFGTYYCLQHNSHPTFGQGTKVEIK	760000
H4H1339P (antibody, V domains shown, Fully human anti-GCGR antibody; the controls are called isotype-matched hIgG4) VH: EVQLVESGGGMVQPGGSLRLSCAASGFTSSNYDMHWVRQATGKGLEWVSSIDTAGDTYYPDSVKGRFIISRENAKNSLYLQMNSLRAGDTAVYYCTREPRNYEILTGHYHYHGMDIWGQGTTVTVS VL: AIQMTQSPSSLSASVGDRVTITCRASQAIRNDLGWYQQKPGKAPKLLIYTAFSLQSGVPSRFSGSKSGTDFTLTISSLQPEDFATYYCLQDYTNPRTFGQGTKVEIK	1e+06

Below: the item to evaluate.
Q) Tell me kon reported for H4H1765N (antibody, V domains shown, Anti-GCGR antibody from hybridoma; the controls are called isotype-matched hIgG4) VH: EEQLVESGGDLVQPGGSLRLSCAASGFTLSSYEMNWVRQAPGKGLEWVSYISRGGSLIHYTDSVKGRFTISRDNAKNSLYLQMNSLRAEDTAVYYCVRDPAARYHYYYHGMDVWGQGTTVTVSS VL: DIVMTQSPLSLPVTPGEPASISCRSSQSLLHNNGYNYLDWYLQKPGQSPQLLIYLGSSRASGVPDRFSGSGSGTDFILKISRVEAEDVGVYYCMQALQTPWTFGRGTKVEIK
A) 410000
